These data points were gathered from DBAASP.

Here we list compounds with their recorded MIC when tested on Klebsiella pneumoniae ATCC 700603.
Value expressed in µM; do not type the unit.

CC[C@H](C)[C@H](NC(=O)CNC(=O)CNC(=O)[C@@H](N)CC(C)C)C(=O)N[C@H](C(=O)N[C@@H](CO)C(=O)N[C@@H](C)C(=O)N[C@H](C(=O)N[C@@H](CCCCN)C(=O)N[C@@H](CCCCN)C(=O)N[C@H](C(=O)N[C@H](C(=O)N[C@@H](CC(=O)O)C(=O)N[C@@H](Cc1ccccc1)C(=O)N[C@@H](CC(C)C)C(=O)NCC(N)=O)C(C)C)[C@@H](C)CC)C(C)C)C(C)C [LGGIVSAVKKIVDFLG]    19.8

# evaluate next
INPUT: What MIC value was documented for this compound, CC[C@H](C)[C@H](N)C(=O)N[C@@H](CC(N)=O)C(=O)N[C@@H](Cc1c[nH]c2ccccc12)C(=O)N[C@@H](CC(C)C)C(=O)N[C@@H](CCCCN)C(=O)N[C@@H](CC(C)C)C(=O)NCC(=O)N[C@@H](CCCCN)C(=O)N[C@@H](C)C(=O)N[C@H](C(=O)N[C@H](C(=O)N[C@@H](CC(=O)O)C(=O)N[C@@H](C)C(=O)N[C@@H](CC(C)C)C(N)=O)[C@@H](C)CC)[C@@H](C)CC [INWLKLGKAIIDAL] ?
OUTPUT: 81.6
